Test system: CCRIS mutagenicity, Ames/micronucleus/aberration tests
Assay: CCRIS mutagenicity studies
Conditions: Test System: AMES SALMONELLA TYPHIMURIUM; Strain/Indicator: TA100; Metabolic Activation: RAT, LIVER, S-9, AROCLOR 1254; Method: STANDARD PLATE
Activity calls are given as the source filed them. The rule behind the calls is not given here.
Outcomes you can answer with include only these: True = active, False = inactive

Query string: Lab log entry: `Cc1ccc(C(=O)n2ncc(Cl)c(Cl)c2=O)cc1` — outcome as called in the assay?
Result string: False

Query string: Lab log entry: `CN1CCN=C(c2ccccc2)c2cc(Cl)ccc21` — outcome as called in the assay?
Result string: False

Query string: Lab log entry: Cc1cc(O)c2c(c1)C(=O)C13C(=C2O)C(=O)C2C(O)C1C1C(O)C3C(=O)C3=C(O)c4c(O)cc(C)cc4C(=O)C321 (stereo not given) — outcome as called in the assay?
Result string: False

Query string: Lab log entry: `CBr` — outcome as called in the assay?
Result string: True

Query string: Lab log entry: O=C(O)C1Cc2c([nH]c3ccccc23)C(CO)N1 (stereo not given) — outcome as called in the assay?
Result string: False

Query string: Lab log entry: `Nc1ccc2cc3ccccc3cc2c1` — outcome as called in the assay?
Result string: True

Query string: Lab log entry: C=CCn1cc2c3c(cccc31)C1C[C@@H](C)CN(C#N)[C@@H]1C2 (stereo not given in full) — outcome as called in the assay?
Result string: True

Query string: Lab log entry: `Nc1ccc2cc(S(=O)(=O)O)c(N=Nc3ccc(N=Nc4ccc(NCCO)cc4NCCO)cc3OCCO)c(O)c2c1` — outcome as called in the assay?
Result string: False

Query string: Lab log entry: `C=Cc1ccc([N+](=O)[O-])cc1` — outcome as called in the assay?
Result string: True

Query string: Lab log entry: `C=CCc1ccc(OC)cc1` — outcome as called in the assay?
Result string: False

Query string: Lab log entry: `c1ccc2c(c1)ccc1nc3ccc4ccccc4c3cc12` — outcome as called in the assay?
Result string: True

Query string: Lab log entry: `Clc1ccncc1` — outcome as called in the assay?
Result string: False

Query string: Lab log entry: `CCOP(=O)(OCC)O/C(=C\Cl)c1ccc(Cl)cc1Cl` — outcome as called in the assay?
Result string: False

Query string: Lab log entry: `COc1cc([C@@H]2c3cc4c(cc3[C@H](O)[C@H]3COC(=O)[C@H]23)OCO4)cc(OC)c1OC` — outcome as called in the assay?
Result string: False

Query string: Lab log entry: `CC(=O)c1ccc(N=O)cc1` — outcome as called in the assay?
Result string: False

Query string: Lab log entry: `Nc1cccc(-c2ccccc2)c1` — outcome as called in the assay?
Result string: False

Query string: Lab log entry: `Nc1cc(Cl)cc(Cl)c1` — outcome as called in the assay?
Result string: False

Query string: Lab log entry: `CC1=CC(=O)C=C2CC[C@@H]3[C@H](CC[C@]4(C)C(=O)CC[C@@H]34)[C@@]12C` — outcome as called in the assay?
Result string: False

Query string: Lab log entry: `O=C(O)CCC(=O)Nc1cc(Cl)cc(Cl)c1` — outcome as called in the assay?
Result string: False

Query string: Lab log entry: `CC(=O)OCC1=CO[C@@H](OC(=O)CC(C)C)[C@H]2C1=C[C@H](OC(=O)CC(C)C)[C@]21CO1` — outcome as called in the assay?
Result string: True
